Target Under Test: JAK1 (Homo sapiens, UniProt P23458)
Sequence (P23458 whole entry): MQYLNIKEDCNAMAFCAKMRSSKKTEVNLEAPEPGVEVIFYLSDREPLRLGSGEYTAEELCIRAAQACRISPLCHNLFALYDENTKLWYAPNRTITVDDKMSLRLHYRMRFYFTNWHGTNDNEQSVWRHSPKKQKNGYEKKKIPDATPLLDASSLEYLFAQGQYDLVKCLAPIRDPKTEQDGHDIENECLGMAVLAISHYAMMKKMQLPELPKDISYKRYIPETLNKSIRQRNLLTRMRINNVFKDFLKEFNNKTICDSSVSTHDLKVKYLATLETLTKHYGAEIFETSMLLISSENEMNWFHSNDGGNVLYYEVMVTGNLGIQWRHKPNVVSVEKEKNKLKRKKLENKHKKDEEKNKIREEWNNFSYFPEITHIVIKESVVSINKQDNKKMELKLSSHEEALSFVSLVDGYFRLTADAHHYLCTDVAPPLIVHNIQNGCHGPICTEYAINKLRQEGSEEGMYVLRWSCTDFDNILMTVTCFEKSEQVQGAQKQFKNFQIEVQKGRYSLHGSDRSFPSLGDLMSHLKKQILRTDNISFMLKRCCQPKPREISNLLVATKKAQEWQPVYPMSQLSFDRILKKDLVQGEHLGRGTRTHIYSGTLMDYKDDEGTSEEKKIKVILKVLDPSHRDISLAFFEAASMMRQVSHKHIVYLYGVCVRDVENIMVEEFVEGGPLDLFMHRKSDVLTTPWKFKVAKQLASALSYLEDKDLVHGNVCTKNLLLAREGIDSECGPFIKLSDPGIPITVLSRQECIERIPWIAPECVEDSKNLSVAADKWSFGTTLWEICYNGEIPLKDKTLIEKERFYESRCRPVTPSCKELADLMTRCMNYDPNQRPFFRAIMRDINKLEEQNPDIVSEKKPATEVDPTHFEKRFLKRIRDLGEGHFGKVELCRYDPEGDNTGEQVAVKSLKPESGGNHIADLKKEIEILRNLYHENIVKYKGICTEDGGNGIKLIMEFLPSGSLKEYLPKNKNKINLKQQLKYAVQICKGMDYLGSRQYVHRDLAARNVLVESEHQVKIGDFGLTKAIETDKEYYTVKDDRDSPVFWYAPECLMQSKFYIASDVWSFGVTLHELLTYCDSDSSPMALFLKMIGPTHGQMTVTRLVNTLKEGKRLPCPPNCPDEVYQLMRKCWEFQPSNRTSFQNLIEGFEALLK
Experiment: JAK kinase inhibition assay (EZ Reader, peptide substrate phosphorylation) - JAK1
Format: biochemical
Measurement Context: JAK1 kinase 20 nM; 8 concentration points, max 10 μM
We begin with a simple list: items and their reported IC50.

Here is how some compounds turned out for IC50.
[
  {
    "Compound": "Cn1cc(Nc2nccc(-c3cnc(NC(=O)CC(F)(F)F)cn3)n2)cn1 [TDM-180905]",
    "Target Under Test": "JAK1 (Homo sapiens, UniProt P23458)",
    "Test Value": "0.1 to 1 µM"
  },
  {
    "Compound": "Cn1cc(Nc2nccc(-c3ccc(C(=O)NCC(F)(F)F)cc3)n2)cn1 [TDM-180748]",
    "Target Under Test": "JAK1 (Homo sapiens, UniProt P23458)",
    "Test Value": "0.1 to 1 µM"
  },
  {
    "Compound": "Cn1cc(Nc2nccc(-c3ccc(NS(=O)(=O)CCCF)cc3)n2)cn1 [TDM-180896]",
    "Target Under Test": "JAK1 (Homo sapiens, UniProt P23458)",
    "Test Value": "0.1 to 1 µM"
  },
  {
    "Compound": "Cn1cc(Nc2nccc(-c3ccc(NC(=O)CC(F)(F)F)c4[nH]ccc34)n2)cn1 [TDM-180870]",
    "Target Under Test": "JAK1 (Homo sapiens, UniProt P23458)",
    "Test Value": "< 0.1 µM"
  },
  {
    "Compound": "Cn1cc(Nc2nccc(-c3ccc(CNCC#N)cc3)n2)cn1 [TDM-180761]",
    "Target Under Test": "JAK1 (Homo sapiens, UniProt P23458)",
    "Test Value": "0.1 to 1 µM"
  },
  {
    "Compound": "Cn1cc(Nc2nccc(-c3ccc(NS(=O)(=O)C4CC4)cc3)n2)cn1 [TDM-180767]",
    "Target Under Test": "JAK1 (Homo sapiens, UniProt P23458)",
    "Test Value": "0.1 to 1 µM"
  }
]

Alright, here's another compound for you.
[in] What does the data say about its IC50? Entry: Cc1cc(-c2ccnc(Nc3cnn(C)c3)n2)ccc1-n1nccc1C1CC1 [TDM-180782]
[out] ≥ 10 µM

---

Target Under Test: JAK1 (Homo sapiens, UniProt P23458)
Experiment: JAK kinase inhibition assay (EZ Reader, peptide substrate phosphorylation) - JAK1
Assay type: biochemical
Measurement Context: JAK1 kinase 20 nM; 8 concentration points, max 10 μM
Observed Property: IC50

Here is how some molecules turned out for IC50.
[
  {
    "Molecule": "Cn1cc(Nc2nccc(-c3ccc(C(=O)N4CCS(=O)(=O)CC4)cc3)n2)cn1",
    "Observed Property": "IC50",
    "Test Value": "1 to 10 µM"
  },
  {
    "Molecule": "Cn1cc(Nc2nccc(-c3ccc(NC(=O)CC4CC4)c4[nH]ccc34)n2)cn1",
    "Observed Property": "IC50",
    "Test Value": "0.1 to 1 µM"
  },
  {
    "Molecule": "Cn1cc(Nc2nccc(-c3ccc(NC(=O)CC4CC4)cc3)n2)cn1",
    "Observed Property": "IC50",
    "Test Value": "0.1 to 1 µM"
  },
  {
    "Molecule": "Cn1cc(Nc2nccc(-c3cnc(NC(=O)CC(F)(F)F)c(F)c3)n2)cn1",
    "Observed Property": "IC50",
    "Test Value": "0.1 to 1 µM"
  }
]

Alright, here's another molecule for you.
[in] # get_value(readout= IC50, system= JAK1 (Homo sapiens, UniProt P23458)) for Cn1cc(Nc2nccc(-c3ccc(NC(=O)C4CC4(F)F)c4[nH]ccc34)n2)cn1 (centres unmarked)
[out] < 0.1 µM

Where these numbers come from: patent US20240174648A1
